B1: EEHEE_rd3_1049 (parent)
chain: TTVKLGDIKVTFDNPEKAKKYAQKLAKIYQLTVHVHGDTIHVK

Variants of: B1
Assay: folding stability dG (cDNA display proteolysis); higher = more stable
Details: PBS, room temperature
Mark not fulfilled for folding stability dG values under 2 kcal/mol, and fulfilled for everything at or above.

residue_change: D7W
category_label: fulfilled
//
residue_change: L31I
category_label: not fulfilled
//
residue_change: L5G
category_label: not fulfilled
//
residue_change: I28A
category_label: not fulfilled
//
residue_change: K17W
category_label: not fulfilled
